Cited source for all entries: patent US20240400689A1

# assay_system: T1, human CD276 protein (human, UniProt Q5ZPR3 29-534)
# T1 sequence (looked up): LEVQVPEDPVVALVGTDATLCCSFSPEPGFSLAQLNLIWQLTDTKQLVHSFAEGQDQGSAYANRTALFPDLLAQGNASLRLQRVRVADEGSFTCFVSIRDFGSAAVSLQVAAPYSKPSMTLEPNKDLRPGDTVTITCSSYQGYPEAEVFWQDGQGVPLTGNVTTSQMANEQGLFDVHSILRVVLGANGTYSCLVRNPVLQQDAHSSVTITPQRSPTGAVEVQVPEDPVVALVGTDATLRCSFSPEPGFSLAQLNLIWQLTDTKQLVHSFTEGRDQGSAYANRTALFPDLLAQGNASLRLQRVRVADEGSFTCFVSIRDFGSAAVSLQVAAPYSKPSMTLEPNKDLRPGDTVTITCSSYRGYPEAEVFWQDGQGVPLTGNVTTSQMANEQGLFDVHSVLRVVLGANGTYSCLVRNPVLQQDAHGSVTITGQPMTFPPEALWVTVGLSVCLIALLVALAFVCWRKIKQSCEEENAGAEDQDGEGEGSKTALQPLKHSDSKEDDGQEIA
# measurement_description: cell-based or functional assay
Recorded EC50 of antibody induced ADCC effect on SKOV3 by entry
# do not omit the unit; it follows the number

Example results:
binder	observed_measurement
11-G10-B4-B11 (human IgG1 chimeric antibody) (antibody, V domains shown, human IgG1 chimeric antibody of the mouse clone) VH: DVQLQESGPGLVKPSQSLSLTCTVTGYSITSDYAWNWIRQFPGNKLEWMGYISYSGSTSYNPSLKSRISITRDTSKNQFFLQLNSVTTEDTATYYCARGGPWFAYWGQGTLVTVSA VL: DVVMTQTPLSLPVSLGDQASISCRSSQSLVHSNGNTYLHWYLQKPGQSPKLLIYKVSNRFSGVPDRFSGSGSGTDFTLKISRVEAEDLGVYFCSQSTHVPFTFGSGTKLEIK	17.3 µg/mL
5-D1-G6-D9 (human IgG1 chimeric antibody) (antibody, V domains shown) VH: EVQLQESGAELVKPGASVKLSCKTSGLTFSTNYISWLKQKPGQSLEWIAWIYGGNGGTSYNQRFTGKAQLTVDTSSSTAYMQFSSLTTEDSAIYYCTSHDYYGGPMDYWGQGTSVTVSS VL: DIQMTQTTSSLSASLGDRVTISCRASQDISNYLNWYQQKPDGTVKLLIYFTSRLHSGVPSRFSASGSGTDYSLTISNLEQEDIATYFCQQTNTLPWTFGGGTKLEIK	1.55 µg/mL

Quick note, EC50 of antibody induced ADCC effect on SKOV3 for 30-E2-G7-G7 (human IgG1 chimeric antibody) (antibody, V domains shown, human IgG1 chimeric antibody of the mouse clone) VH: EVQLQESGGGLVKPGGSLKLSCAASGFTFSYYAMSWVRQTPEKRLEWVATINGDGSHTYYPDSVRGRFTISRDNAKNTLYLQVSSLRSEDTAMYYCASLLQLGPFWGQGTTLTVSS VL: DIVMTQSQKFMSTSVGDRVSVTCKASQNVGTNVAWYHQRPGQSPKPLIYSASYRYSGVPDRFTGSGSGTDFTLTISNVQSEDLAEYFCQQYNNYPLTFGSGTKLEIK landed at 0.247 µg/mL
